B1: TLE6 (parent)
chain: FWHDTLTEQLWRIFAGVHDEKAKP

Variants of: B1
experimental protocol: protein stability index of a GFP-peptide fusion (GPS, HEK-293T) (PSI 1-6); higher = more stable;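 note: lentivirally expressed fusions sorted by FACS into six bins by GFP to DsRed ratio, PSI derived from sequencing read proportions per bin multiplied by bin number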
measurement parameters: c terminus: a fixed tail appended
Assign condition met whenever protein stability index does not fall below 2; assign condition not met whenever it does.

Reference set, count: 8
>>> df
   mutation_list         class_name
0           V17R      condition met
1           P24H      condition met
2            E8V      condition met
3           A15I  condition not met
4            H3V  condition not met
5            L6M  condition not met
6            F1L  condition not met
7           P24C      condition met

Is protein stability index for W2M at or above 2?
condition not met

Is protein stability index for P24F at or above 2?
condition met

Is protein stability index for A15L at or above 2?
condition met

Is protein stability index for E8R at or above 2?
condition not met

Is protein stability index for L10E at or above 2?
condition met

Is protein stability index for K21W at or above 2?
condition met

Is protein stability index for P24A at or above 2?
condition not met

Is protein stability index for T5I at or above 2?
condition met

Is protein stability index for H18Q at or above 2?
condition not met

Is protein stability index for L6H at or above 2?
condition met

Is protein stability index for D19H at or above 2?
condition not met

Is protein stability index for D19L at or above 2?
condition not met

Is protein stability index for T5V at or above 2?
condition met

Is protein stability index for D19E at or above 2?
condition not met

Is protein stability index for E20G at or above 2?
condition not met

Is protein stability index for T5Q at or above 2?
condition not met

Is protein stability index for F14V at or above 2?
condition met

Is protein stability index for A15V at or above 2?
condition met

Is protein stability index for R12F at or above 2?
condition met

Just for reference, the supplement of paper PMC10567573 is where these values come from.
